# target or test system: Endogenous BCL6 (Homo sapiens)
# Construct: Endogenous BCL6 was tagged with the 11-amino acid SmBiT through CRISPR/Cas9 gene editing; endogenous in cells; host or cells: SU-DHL-4 (CRISPR/Cas9 knock-in single cell clone)
# procedure details: HiBiT cellular degradation assay in SU-DHL-4 cells
# Format: cell-based
# measurement parameters: 24 hours of compound treatment, concentration to reach 50% degradation
measure name: DC50 (nM)

CNC(=O)CCn1c(=O)c(=O)n(C)c2ccc(Nc3nc(N4C[C@@H](N)C(F)(F)[C@@H](C)C4)ncc3Cl)cc21 : 920
C[C@@H]1CN(c2ncc(Cl)c(Nc3ccc4c(c3)n(CCC(=O)NCCN(C)C)c(=O)c(=O)n4C)n2)C[C@H](C)C1(F)F : 450

[a] C[C@@H]1CN(c2ncc(Cl)c(Nc3ccc4c(c3)n(CCC(=O)NCC3COC3)c(=O)c(=O)n4C)n2)C[C@H](C)C1(F)F
[b] C[C@@H]1CN(c2ncc(Cl)c(Nc3ccc4c(c3)n(CC(=O)NC3CCN(C)C3)c(=O)c(=O)n4C)n2)C[C@H](C)C1(F)F (stereo partly shown)
QUERY: When a and b are compared, which has the higher number for DC50? # respond with the chosen item's label
RESULT: b
(b: 970 nM, a: 160 nM)

###

# target or test system: Endogenous BCL6 (Homo sapiens, UniProt P41182)
# Construct: Endogenous BCL6 was tagged with the 11-amino acid SmBiT through CRISPR/Cas9 gene editing; endogenous in cells; host or cells: SU-DHL-4 (CRISPR/Cas9 knock-in single cell clone)
# procedure details: HiBiT cellular degradation assay in SU-DHL-4 cells
# Format: cell-based
# measurement parameters: 24 hours of compound treatment, concentration to reach 50% degradation
measure name: DC50 (nM)

Here's what some known entries look like.
C[C@@H]1CN(c2ncc(Cl)c(Nc3ccc4c(c3)n(CCC(=O)NCC3CN(C)C3)c(=O)c(=O)n4C)n2)C[C@H](C)C1(F)F [Compound 11] : 3100
CNC(=O)C(C)(C)Cn1c(=O)c(=O)n(C)c2ccc(Nc3nc(N4C[C@@H](C)C(F)(F)[C@@H](C)C4)ncc3Cl)cc21 [Compound 68] : 100
CNC(=O)CCn1c(=O)c(=O)n(C)c2ccc(Nc3nc(N4C[C@@H](C)C(F)(F)[C@@H](N)C4)ncc3Cl)cc21 [Compound 82] : 84
C[C@@H]1CN(c2ncc(Cl)c(Nc3ccc4c(c3)n(CCC(=O)NC3CCN(C)C3)c(=O)c(=O)n4C)n2)C[C@H](C)C1(F)F (stereo partly drawn) [Compound 9] : 220
CNC(=O)CCn1c(=O)c(=O)n(C)c2ccc(Nc3nc(N4C[C@H](C)C[C@H](C)C4)ncc3Cl)cc21 [Compound 1] : 25
C[C@@H]1CN(c2ncc(Cl)c(Nc3ccc4c(c3)n(CCC(=O)NCC3CCOC3)c(=O)c(=O)n4C)n2)C[C@H](C)C1(F)F (stereo partly drawn) [Compound 32] : 150

[A] C[C@@H]1CN(c2ncc(Cl)c(Nc3ccc4c(c3)n(CCC(=O)NC3CCOC3)c(=O)c(=O)n4C)n2)C[C@H](C)C1(F)F (stereo partly drawn) [Compound 29]
[B] C[C@@H]1CN(c2ncc(Cl)c(Nc3ccc4c(c3)n(CCC(=O)NCC3CCN(C)C3)c(=O)c(=O)n4C)n2)C[C@H](C)C1(F)F (stereo partly drawn) [Compound 12]
[C] C[C@@H]1CN(c2ncc(Cl)c(Nc3ccc4c(c3)n(CCC(=O)NC3COC3)c(=O)c(=O)n4C)n2)C[C@H](C)C1(F)F [Compound 28]
QUERY: // ascending sort on recorded DC50 // format: requested-order list of labels
RESULT: C, A, B
(C: 32 nM, A: 71 nM, B: 1800 nM)

[a] CNC(=O)CCn1c(=O)c(=O)n(C)c2ccc(Nc3nc(N4C[C@@H](CCO)C(F)(F)[C@@H](C)C4)c(C#N)cc3Cl)cc21 [Compound 121]
[b] C[C@@H]1CN(c2ncc(Cl)c(Nc3ccc4c(c3)n(C[C@H]3C[C@H](O)C3)c(=O)c(=O)n4C)n2)C[C@H](C)C1F (stereo partly drawn) [Compound 108]
[c] CNC(=O)Cn1c(=O)c(=O)n(C)c2ccc(Nc3nc(N4C[C@@H](N)C(F)(F)[C@@H](C)C4)ncc3Cl)cc21 [Compound 87]
QUERY: Rank the 3 compounds: largest DC50 first, smallest last. // format: requested-order list of labels
RESULT: c, a, b

[A] C[C@H](O)CCn1c(=O)c(=O)n(C)c2ccc(Nc3nc(N4C[C@@H](C)[C@@H](F)[C@@H](C)C4)ncc3Cl)cc21 [Compound 123]
[B] C[C@@H]1CN(c2nc(Nc3ccc4c(c3)n(CCC3(O)CC3)c(=O)c(=O)n4C)c(Cl)cc2C#N)C[C@H](C)[C@@H]1F [Compound 119]
QUERY: When A and B are compared, which has the higher number for DC50? # respond with the chosen item's label
RESULT: A
(A: 23 nM, B: 13 nM)

###

# target or test system: Endogenous BCL6 (Homo sapiens, UniProt P41182)
# Construct: Endogenous BCL6 was tagged with the 11-amino acid SmBiT through CRISPR/Cas9 gene editing; endogenous in cells; host or cells: SU-DHL-4 (CRISPR/Cas9 knock-in single cell clone)
# procedure details: HiBiT cellular degradation assay in SU-DHL-4 cells
# Format: cell-based
# measurement parameters: 24 hours of compound treatment, concentration to reach 50% degradation
# Description: DC50 (concentration to reach 50% degradation) values were determined from a cellular degradation assay (HiBiT, Promega™) in Su-DHL-4 cells (Table 1). Endogenous BCL6 was tagged with the 11-amino acid SmBiT through CRISPR/Cas9 gene editing and single cell clone selection. After 24 hours of compound treatment, cells were lysed and incubated with LgBiT protein to reconstitute intact nanoluciferase. Substrate was then added and relative luciferase units were measured. […]
measure name: DC50 (nM)

C[C@@H]1CN(c2ncc(Cl)c(Nc3ccc4c(c3)n(CC(=O)NCCN(C)C)c(=O)c(=O)n4C)n2)C[C@H](C)C1(F)F : 340
CNC(=O)Cn1c(=O)c(=O)n(C)c2ccc(Nc3nc(N4C[C@@H](C)C(F)(F)[C@@H](N)C4)ncc3Cl)cc21 : 120
C[C@@H]1CN(c2ncc(Cl)c(Nc3ccc4c(c3)n(C[C@H]3C[C@@H](O)C3)c(=O)c(=O)n4C)n2)C[C@H](C)C1F (stereo partly drawn) : 4
C[C@@H]1CN(c2ncc(Cl)c(Nc3ccc4c(c3)n(CCC(=O)NCCCN(C)C)c(=O)c(=O)n4C)n2)C[C@H](C)C1(F)F : 500
CNC(=O)CCn1c(=O)c(=O)n(C)c2ccc(Nc3nc(N4C[C@@H](O)C(F)(F)[C@@H](C)C4)ncc3Cl)cc21 : 94

[P] C[C@@H]1CN(c2ncc(Cl)c(Nc3ccc4c(c3)n(CC(=O)NC3CCN(C)CC3)c(=O)c(=O)n4C)n2)C[C@H](C)C1(F)F
[Q] C[C@@H]1CN(c2ncc(Cl)c(Nc3ccc4c(c3)n(CCC3(O)CCC3)c(=O)c(=O)n4C)n2)C[C@H](C)C1F (stereo partly drawn)
[R] CNC(=O)[C@H]1C[C@@H](n2c(=O)c(=O)n(C)c3ccc(Nc4nc(N5C[C@@H](C)C(F)(F)[C@@H](C)C5)ncc4Cl)cc32)C1
QUERY: Rank the 3 compounds: largest DC50 first, smallest last. // format: requested-order list of labels
RESULT: P, R, Q
(P: 1120 nM, R: 290 nM, Q: 34 nM)

###

# target or test system: Endogenous BCL6 (Homo sapiens, UniProt P41182)
# Construct: Endogenous BCL6 was tagged with the 11-amino acid SmBiT through CRISPR/Cas9 gene editing; endogenous in cells; host or cells: SU-DHL-4 (CRISPR/Cas9 knock-in single cell clone)
# procedure details: HiBiT cellular degradation assay in SU-DHL-4 cells
# Format: cell-based
# measurement parameters: 24 hours of compound treatment, concentration to reach 50% degradation
measure name: DC50 (nM)

C[C@@H]1CN(c2ncc(Cl)c(Nc3ccc4c(c3)n(C[C@@H]3CNC(=O)O3)c(=O)c(=O)n4C)n2)C[C@H](C)[C@@H]1F [Compound 117] : 130
C[C@@H]1CN(c2ncc(Cl)c(Nc3ccc4c(c3)n(C[C@@H]3COC(=O)N3)c(=O)c(=O)n4C)n2)C[C@H](C)[C@@H]1F [Compound 118] : 120
C[C@@H]1CN(c2ncc(Cl)c(Nc3ccc4c(c3)n(CCC3(O)CC3)c(=O)c(=O)n4C)n2)C[C@H](C)C1F (stereo partly shown) [Compound 110] : 18

[I] C[C@@H]1CN(c2ncc(Cl)c(Nc3ccc4c(c3)n(CC(=O)NC3CN(C)C3)c(=O)c(=O)n4C)n2)C[C@H](C)C1(F)F [Compound 58]
[II] CNC(=O)CCn1c(=O)c(=O)n(C)c2ccc(Nc3nc(N4C[C@H](CCO)C(F)(F)[C@H](C)C4)c(C#N)cc3Cl)cc21 [Compound 120]
QUERY: Which value of DC50 is smaller, the one for I or the one for II ? # respond with the chosen item's label
RESULT: I

[a] CNC(=O)[C@H]1C[C@H](n2c(=O)c(=O)n(C)c3ccc(Nc4nc(N5C[C@@H](C)C(F)(F)[C@@H](C)C5)ncc4Cl)cc32)C1 [Compound 75-2]
[b] CNC(=O)Cn1c(=O)c(=O)n(C)c2ccc(Nc3nc(N4C[C@@H](C)C(F)(F)[C@@H](C)C4)ncc3Cl)cc21 [Compound 56]
[c] C[C@@H]1CN(c2ncc(Cl)c(Nc3ccc4c(c3)n(CCC3(O)COC3)c(=O)c(=O)n4C)n2)C[C@H](C)C1F (stereo partly shown) [Compound 112]
[d] C[C@@H]1C[C@H](C)CN(c2ncc(Cl)c(Nc3ccc4c(c3)n(CC[C@@H](C)O)c(=O)c(=O)n4C)n2)C1 [Compound 107]
QUERY: Rank the 4 compounds: largest DC50 first, smallest last. // format: requested-order list of labels
RESULT: a, d, c, b

[I] C[C@@H]1CN(c2ncc(Cl)c(Nc3ccc4c(c3)n(CC[C@@H](C)O)c(=O)c(=O)n4C)n2)C[C@H](C)[C@@H]1F [Compound 122]
[II] C[C@@H]1CN(c2ncc(Cl)c(Nc3ccc4c(c3)n(CCC(=O)NCC(C)(C)O)c(=O)c(=O)n4C)n2)C[C@H](C)C1(F)F [Compound 73]
QUERY: Which value of DC50 is smaller, the one for I or the one for II ? # respond with the chosen item's label
RESULT: I
(I: 19 nM, II: 130 nM)
